assay: binders of probe aFST on microarray, primary screen, stem cell growth factor project, biochemical, small-molecule microarray, fluorescence 635/667 (AID 1086); conditions: higher = more signal;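 note: score merges 667 nm fluorescence with signal-to-noise of each printed compound spot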
Overview of recorded composite z-score for various molecules
Respond using a number only.

Record excerpt, results attached:
>>> val("COC(=O)CC=C[C@@H](C)[C@@H](C=NOC[C@H]1O[C@H](c2ccccc2)C=C[C@@H]1Oc1ccc(OC)cc1)NS(=O)(=O)c1ccc(C)cc1")
-0.0763
>>> val("CCc1cc2c(nc1CC)CCN(CCC(C)=NOC[C@H]1O[C@H](c3ccccc3)C=C[C@@H]1Oc1ccc(OC)cc1)C2")
0.0567
>>> val("Cc1ccc(S(=O)(=O)N[C@@H]2COC(=O)[C@@H](C)COC(=O)CC=C[C@H]2C)cc1")
0.045
>>> val("CC(C)=NOC[C@@H](C)[C@H](OCc1ccccc1)C(C)C")
-0.21
>>> val("O=C(NN=C1C[C@@H](O)[C@@H](O)[C@@H]2[C@@H]3C(=O)N(C4CCCCC4)C(=O)[C@@H]3CC[C@@H]12)OCc1ccccc1")
0.818

Q: Which value of composite z-score has been reported for CC(CCN1CCCCc2nc(C)c(C)cc21)=NO[C@@H](C)c1cn([C@H](CO)Cc2ccccc2)nn1 in the records?
Result: 0.163

====

Overview of recorded composite z-score for various compounds
biological target: Follistatin (Homo sapiens) (UniProt P19883); experiment: follistatin binders on small-molecule microarrays, primary screen, biochemical, small-molecule microarray, 635/667 nm fluorescence (AID 1132); conditions: FST binding, 635 nm fluorescence, higher = more signal
Sequence (P19883 whole entry, looked up): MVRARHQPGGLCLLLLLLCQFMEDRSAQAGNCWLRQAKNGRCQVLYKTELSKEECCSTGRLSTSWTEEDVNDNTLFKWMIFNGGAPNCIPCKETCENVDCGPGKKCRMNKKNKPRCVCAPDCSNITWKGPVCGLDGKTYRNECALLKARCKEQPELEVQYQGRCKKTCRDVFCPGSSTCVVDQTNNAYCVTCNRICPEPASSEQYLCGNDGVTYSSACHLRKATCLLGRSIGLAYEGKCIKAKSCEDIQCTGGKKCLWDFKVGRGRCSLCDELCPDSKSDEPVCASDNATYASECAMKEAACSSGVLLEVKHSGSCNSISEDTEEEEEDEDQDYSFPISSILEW
Respond using a number only.

Q: Which value of composite z-score has been reported for CC(C)=NOC[C@@H](C)[C@H](OCc1ccccc1)C(C)C in the records?
Result: -0.476

Q: Similarly, C=COC[C@@H]1CN2[C@@H](CC[C@@H](C)[C@@H]2c2ccc(Br)cc2)C(=O)O1 ?
Result: 0.0793

Q: Similarly, Cc1cc2c(nc1C)CCCN2CC(O)CN1CCCc2nc(C)c(C)cc21 ?
Result: 0.817

Q: Similarly, O=C(NN=C1C[C@@H](O)[C@@H](O)[C@@H]2[C@@H]3C(=O)N(C4CCCCC4)C(=O)[C@@H]3CC[C@@H]12)OCc1ccccc1 ?
Result: 0.0434

Q: Similarly, CC(C)[C@@H](OCc1ccccc1)[C@H](C)C=NOC[C@@H](O)COCc1ccco1 ?
Result: -1.05

Q: Similarly, O=C1C[C@@H](O)[C@@H](O)[C@@H]2[C@@H]3C(=O)N(Cc4ccccc4)C(=O)[C@@H]3CC[C@@H]12 ?
Result: 0.892

Q: Similarly, O=C1[C@H]2[C@H]3[C@H](O)[C@H](O)CC(=NOCc4ccccc4)[C@H]3CC[C@H]2C(=O)N1Cc1ccc2c(c1)OCO2 ?
Result: 0.214

Q: Similarly, CC(C)CON=C1C[C@@H](O)[C@@H](O)[C@@H]2[C@@H]3C(=O)N(C(C)(C)C)C(=O)[C@@H]3CC[C@H]12 ?
Result: -0.924

Q: Similarly, CC(C)=CCCC(C)=CCON=C1C[C@@H](O)[C@@H](O)[C@@H]2[C@@H]3C(=O)N(c4cccc(Oc5ccccc5)c4)C(=O)[C@@H]3CC[C@@H]12 ?
Result: 0.612

Q: Similarly, O=c1n(Cc2cc3c(cc2Cl)OCO3)c(=O)n2n1CC[C@@H]1C(=NOCc3ccccc3)[C@H]3O[C@H]3[C@@H](O)[C@@H]12 ?
Result: 0.444

Q: Similarly, CO[C@H]1COC(=O)[C@@H](Cc2ccccc2)NC(=O)[C@@H](C)COC(=O)CCC[C@@H]1C ?
Result: 0.2

Q: Similarly, COC(=O)CC=C[C@@H](C)[C@@H](C=NOC(C)CN1CCCc2nc(C)c(C)cc21)OC (stereo partly specified) ?
Result: 0.6

Q: Similarly, CC(=O)OC[C@H]1O[C@H](CCON=C2[C@H]3CCn4c(=O)n(-c5ccccc5)c(=O)n4[C@H]3[C@H](O)[C@@H]3O[C@H]23)C=C[C@@H]1OC(C)=O ?
Result: 0.334

Q: Similarly, CCOC(=O)NN=C1C[C@@H](O)[C@@H](O)[C@@H]2[C@@H]3C(=O)N(C(C)(C)C)C(=O)[C@@H]3CC[C@H]12 ?
Result: 0.903

Q: Similarly, COC(=O)CC=C[C@@H](C)[C@@H](C=NOCC[C@@H]1C=C[C@H](OC(C)=O)[C@@H](COC(C)=O)O1)OC ?
Result: 0.73

Q: Similarly, O=C1C=C[C@@H](O)[C@@H]2[C@@H]3C(=O)N(c4ccc(F)cc4F)C(=O)[C@@H]3CC[C@@H]12 ?
Result: 0.791

====

assay: PSAC antagonists in infected red cells, primary screen, cell-based, P. falciparum Indochina, OD700, 1 h (AID 1154); settings: P. falciparum Indochina infected RBC osmotic lysis, higher = more signal, called active from +8 up or from −8 down
Overview of recorded z-score for various compounds
Respond using a number only.

Record excerpt, results attached:
>>> val("COC(=O)[C@@H]1CC[C@H](C)[C@@H](c2ccc(C)cc2)N1C(=O)c1ccc(C=NO[C@H](C)c2cn([C@H](CO)Cc3ccccc3)nn2)cc1")
18.8
>>> val("CO[C@H]1COC(=O)CC=C[C@H](C)COC(=O)[C@@H](C)NC(=O)CC=C[C@@H]1C")
-0.499
>>> val("CC(C)CON=C1[C@H]2CCn3c(=O)n(Cc4cc5c(cc4Cl)OCO5)c(=O)n3[C@H]2[C@H](O)[C@@H]2O[C@H]12")
0.292
>>> val("C[C@H]1Cc2c(COc3ccccc3)nc3c(c2CO1)CN(CCOc1ccccc1)CC3")
3.74
>>> val("COC(=O)[C@H](C)NC(=O)CCC1CC(OC(=O)NCc2ccc3c(c2)OCO3)CC2(CCCC(COC(=O)NCc3cccc(C(F)(F)F)c3)O2)O1 (some centres not stated)")
0.598
>>> val("COc1ccc(O[C@H]2C=C[C@@H](c3ccccc3)O[C@@H]2CON=C(C)CCN2CCc3nc(-c4ccccc4)c(-c4ccccc4)cc3C2)cc1")
2.48

In the following, a different compound is considered.
Q: Which value of z-score has been reported for CCc1cc2c(nc1CC)CCN(CCC(C)=NO[C@H](C)c1cn([C@@H]3COC[C@H]3O)nn1)C2 in the records?
Result: 1.34

====

molecular target: Torsin-1A (Homo sapiens); assay: torsin A binders from cell lysate, primary screen, small-molecule microarray, wild-type, 635/667 nm (AID 1149); conditions: COS7 hTOR1A-WT lysate, 635 nm fluorescence, higher = more signal
Overview of recorded composite z-score for various compounds

Record excerpt, results attached:
>>> val("CCC(=O)[C@@]1(O)C(=O)N2C(=C3C(=O)OCC[C@@H]31)N(Cc1ccccc1)C(C)=C(C(=O)OC)[C@H]2c1ccccc1")
0.578
>>> val("Cc1ccc(S(=O)(=O)N[C@H]2COC(=O)CC=C[C@H](C)[C@@H](NS(=O)(=O)c3ccc(C)cc3)COC(=O)CC=C[C@@H]2C)cc1")
0.649
>>> val("COc1ccc(O[C@@H]2[C@H](O)CO[C@@H]2C=Cc2ccccc2)cc1")
-0.071
>>> val("CCOC(=O)[C@H](CC(C)C)NC(=O)CCC1CC(OC(=O)NCCc2ccc(F)cc2)CC2(CCCC(COC(=O)NCCC(C)C)O2)O1 (some centres not stated)")
-0.239
>>> val("CO[C@H]1COC(=O)CC=C[C@@H](C)[C@H](OC)COC(=O)[C@@H]2CCCN2C(=O)CC=C[C@@H]1C")
1.72
>>> val("COc1ccc(O[C@H]2C=C[C@@H](c3ccccc3)O[C@@H]2COC(=O)CCC(C)=NOC[C@@H](O)[C@H]2O[C@@H]3OC(C)(C)O[C@@H]3[C@H]2O)cc1")
0.624

Q: Which value of composite z-score has been reported for O=C(NN=C1C[C@@H](O)[C@@H](O)[C@@H]2[C@@H]3C(=O)N(C4CCCCC4)C(=O)[C@@H]3CC[C@@H]12)OCc1ccccc1 in the records?
Result: 0.205

====

assay: yeast growth modulation, basal conditions, primary screen, YJM789 clinical isolate, OD600, 24 h (AID 1089);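 note: growth of clinical yeast isolate S. cerevisiae YJM 789 seeded 1000 cells per well; test concentration not given here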; details: S. cerevisiae YJM789 growth, higher = more signal, called active from +8 up or from −8 down
Overview of recorded z-score for various compounds
Respond using a number only.

Record excerpt, results attached:
>>> val("COC(=O)[C@@H]1CC[C@H](C)[C@@H](c2ccc(C)cc2)N1C(=O)c1ccc(C=NO[C@@H]2O[C@H](COC(C)=O)[C@@H](OC(C)=O)[C@H](OC(C)=O)[C@H]2OC(C)=O)cc1")
1.26
>>> val("COc1ccc(O[C@H]2C=C[C@@H](c3ccccc3)O[C@@H]2CON=C(C)CCN2CCc3nc(-c4ccccc4)c(-c4ccccc4)cc3C2)cc1")
0.549
>>> val("COc1cccc([C@H]2Oc3ccc(OC)cc3C(=NOC[C@@H](O)[C@H]3O[C@@H]4OC(C)(C)O[C@@H]4[C@H]3O)[C@@H]2O)c1")
-0.797
>>> val("C#CCCCON=C1[C@H]2CCn3c(=O)n(-c4ccccc4)c(=O)n3[C@H]2[C@H](O)[C@@H]2O[C@H]12")
-1.65
>>> val("CCOC(=O)NN=C1C[C@@H](O)[C@@H](O)[C@@H]2[C@@H]3C(=O)N(c4cccc(Oc5ccccc5)c4)C(=O)[C@@H]3CC[C@@H]12")
-0.73

Q: Which value of z-score has been reported for CO[C@@H]1COC(=O)CC=C[C@H](C)[C@H](OC)COC(=O)[C@H](C)NC(=O)CC=C[C@H]1C in the records?
Result: 0.419
